System: 966289-007-R4-J1-PDC complex spheroid viability;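 note: spheroids exposed to the agents for seven days before readout; percent viability relative to DMSO vehicle control wells taken as 100%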
Test: Anticancer human tumor 966289-007-R4-J1-PDC patient-derived pancreatic adenocarcinoma cell line growth inhibition [GQUAD]; active = viability on the fitted dose curve at most 10% of control; inactive = the rest
Conditions: second compound 10 µM; first compound 0.316 µM
Outcomes: class 1 for active, class 0 for inactive

>  <Compound>
Nc1ccn(C2OC(CO)C(O)C2(F)F)c(=O)n1 (stereo not drawn) + Cc1cnc(CNC(=O)c2c(=O)c3ccc(N4CCCN(C)CC4)nc3n3c2sc2ccccc23)cn1

>  <Answer label>
class 1

$$$$
>  <Compound>
Cn1ncnc1[C@H]1c2n[nH]c(=O)c3cc(F)cc(c23)N[C@@H]1c1ccc(F)cc1 + Cc1[nH]c2ccc(F)cc2c1-c1nc2c3cccnc3c3ncccc3c2[nH]1

>  <Answer label>
class 0

$$$$
>  <Compound>
CC1COCCN1c1cc(-c2ccnn2C)c2ccnc(-c3ccn[nH]3)c2n1 (stereo not drawn) + CN(C)c1ccc(Nc2c3ccc(NC(=O)CCN4CCCC4)cc3nc3cc(NC(=O)CCN4CCCC4)ccc23)cc1

>  <Answer label>
class 0

$$$$
